target: Leukotriene C4 synthase (Cavia porcellus, UniProt A6XA80); assay type: tissue-based, Lung;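 also: enzyme inhibition assay of leukotriene C4 synthase, using LTA4 as the substrate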; also: in other assays of this panel Not Active means under 50% inhibition at 10 µM
Sequence (A6XA80 whole entry): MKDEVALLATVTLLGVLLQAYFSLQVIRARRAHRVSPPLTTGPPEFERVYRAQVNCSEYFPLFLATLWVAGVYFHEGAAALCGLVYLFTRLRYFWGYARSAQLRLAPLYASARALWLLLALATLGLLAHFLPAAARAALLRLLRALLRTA
Measure: IC50

Here's what some known entries look like.
Compound	IC50
C#C[C@]1(O)CC[C@H]2[C@@H]3CCC4=Cc5oncc5C[C@]4(C)[C@H]3CC[C@@]21C	Not Active
[N-]=[N+]=CC(=O)OC[C@H](N)C(=O)O	Not Active
Cc1c(F)c(N2CCNC(C)C2)cc2c1c(=O)c(C(=O)O)cn2C1CC1 (stereo not drawn)	Not Active
Oc1ccccc1O	Not Active
CN(Cc1cnc2nc(N)nc(N)c2n1)c1ccc(C(=O)N[C@@H](CCC(=O)O)C(=O)O)cc1 [METHOTREXATE]	Not Active

// IC50 lookup, compound = CCN[C@@H](C)Cc1cccc(C(F)(F)F)c1 , result: Not Active

So for CN1C[C@H](C(=O)N[C@]2(C)O[C@@]3(O)[C@@H]4CCCN4C(=O)[C@H](Cc4ccccc4)N3C2=O)C[C@@H]2c3cccc4[nH]cc(c34)C[C@H]21 [DIHYDROERGOTAMINE] , the logged IC50 turned out to be Not Active

# IC50 (compound: CN(CCOc1ccc(CC2SC(=O)NC2=O)cc1)c1ccccn1 (stereo not drawn) ) is Not Active

====

test: DRUGMATRIX: ATPase, Na+/K+ enzyme inhibition (substrate: ATP); type: tissue-based, Sus scrofa, Heart; conditions: Not Active = under 50% inhibition at 10 µM

Compound	Ki
CC(CCc1ccc(O)cc1)NCCc1ccc(O)c(O)c1 (stereo not drawn) [DOBUTAMINE]	Not Active
OCCN1CCN(CCCN2c3ccccc3Sc3ccc(Cl)cc32)CC1 [PERPHENAZINE]	Not Active
Nc1nc(N)nc(NC2CC2)n1 [CYROMAZINE]	Not Active

====

biological target: C-X-C chemokine receptor type 2 (Homo sapiens, UniProt P25025); type: cell membranes, Membrane; settings: cho-k1; also: in other assays of this panel Not Active means under 50% inhibition at 10 µM
Sequence (P25025 whole entry): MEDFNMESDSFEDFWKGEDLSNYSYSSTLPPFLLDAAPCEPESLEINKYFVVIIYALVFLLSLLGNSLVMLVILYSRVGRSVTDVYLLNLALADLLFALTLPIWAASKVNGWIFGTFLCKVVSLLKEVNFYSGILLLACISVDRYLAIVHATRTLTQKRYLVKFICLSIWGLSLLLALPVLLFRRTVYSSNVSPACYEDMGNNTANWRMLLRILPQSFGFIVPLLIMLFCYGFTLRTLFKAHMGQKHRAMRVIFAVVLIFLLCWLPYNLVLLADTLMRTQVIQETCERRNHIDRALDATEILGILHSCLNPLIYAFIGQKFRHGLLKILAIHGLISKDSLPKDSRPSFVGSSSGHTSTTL
Measure: IC50

Recorded IC50, per entry:
Compound	Measure	Measured
O=C(O)c1cc(=O)c2c(OCC(O)COc3cccc4oc(C(=O)O)cc(=O)c34)cccc2o1	IC50	Not Active
COc1cc(N)nc2[nH]c(-c3ccc(F)cc3)c(-c3ccncc3)c12	IC50	Not Active
CC(C)(Oc1ccc(C2CC2(Cl)Cl)cc1)C(=O)O (stereo unspecified) [CIPROFIBRATE]	IC50	Not Active
CCCCCC[C@H]1C(=O)O[C@H](C)[C@H](NC(=O)c2cccc(NC=O)c2O)C(=O)O[C@@H](C)[C@@H]1OC(=O)CC(C)C [ANTIMYCIN A]	IC50	Not Active

Input CC(C)(C)NC[C@H](O)COc1nsnc1N1CCOCC1 . Output IC50: Not Active

Short answer for CN1C[C@H](C(=O)N[C@]2(C)O[C@@]3(O)[C@@H]4CCCN4C(=O)[C@H](Cc4ccccc4)N3C2=O)C[C@@H]2c3cccc4[nH]cc(c34)C[C@H]21 [DIHYDROERGOTAMINE] : IC50 was Not Active

Field IC50 (entry O=c1n(CCCN2CCN(c3cccc(Cl)c3)CC2)nc2ccccn12 ) reads Not Active

CC1=C(CC(=O)O)c2cc(F)ccc2/C1=C\c1ccc(S(C)(=O)=O)cc1 has a reported IC50 of Not Active

The compound CC(C(=O)O)c1ccc(CC2CCCC2=O)cc1 (stereo unspecified) showed IC50 equal to Not Active

====

assay: DRUGMATRIX: Glutamate, Kainate radioligand binding (ligand: [3H] Kainic acid); assay type: cell membranes, Rattus norvegicus, Wistar, Brain, Membrane; settings: Not Active = under 50% inhibition at 10 µM
Measure: IC50

Study these solved cases before continuing.
Compound	IC50
CCOC(=O)[C@H](CCc1ccccc1)N[C@@H](C)C(=O)N1Cc2ccccc2C[C@H]1C(=O)O	Not Active
CCN[C@@H](C)Cc1cccc(C(F)(F)F)c1	Not Active
NC[C@H]1O[C@H](O[C@H]2[C@H](O)[C@@H](O[C@H]3O[C@H](CO)[C@@H](O)[C@H](N)[C@H]3O)[C@H](N)C[C@@H]2N)[C@H](N)C[C@@H]1O	Not Active
C[C@]12C/C(=C/O)C(=O)C[C@@H]1CC[C@@H]1[C@@H]2CC[C@@]2(C)[C@H]1CC[C@]2(C)O	Not Active
CC(=O)O[C@H]1C[C@@H]2CC[C@@H]3[C@H](CC[C@@]4(C)[C@H]3C[C@H]([N+]3(C)CCCCC3)[C@@H]4OC(C)=O)[C@@]2(C)C[C@@H]1N1CCCCC1.[Br-] [VECURONIUM BROMIDE]	Not Active
Nn1nnc2ccccc21	Not Active
Clc1cc2c(cc1Cl)Oc1cc(Cl)c(Cl)cc1O2	Not Active
CC[C@H](C)C(=O)O[C@H]1C[C@@H](C)C=C2C=C[C@H](C)[C@H](CC[C@@H]3C[C@@H](O)CC(=O)O3)[C@H]21	Not Active

Below: the item to evaluate.
// field: IC50; key: CC(C(=O)O)c1ccc(-c2ccccc2)c(F)c1 (centres undefined) ; value = Not Active

====

molecular target: C-C chemokine receptor type 5 (Homo sapiens); assay type: cell membranes, Membrane; details: hek293; also: in other assays of this panel Not Active means under 50% inhibition at 10 µM
Sequence (P51681 whole entry): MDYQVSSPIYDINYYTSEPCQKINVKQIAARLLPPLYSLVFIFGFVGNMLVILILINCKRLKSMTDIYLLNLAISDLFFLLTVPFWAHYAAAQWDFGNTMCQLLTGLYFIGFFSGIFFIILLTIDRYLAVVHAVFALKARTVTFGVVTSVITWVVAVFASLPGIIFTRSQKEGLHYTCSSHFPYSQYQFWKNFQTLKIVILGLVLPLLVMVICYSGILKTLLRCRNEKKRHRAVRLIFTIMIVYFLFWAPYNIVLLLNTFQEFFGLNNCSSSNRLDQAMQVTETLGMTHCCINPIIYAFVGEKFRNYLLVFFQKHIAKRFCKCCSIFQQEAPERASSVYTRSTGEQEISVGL
Measure: IC50

Worked examples, 5 compounds total:
Compound	Tested on	IC50
COc1ccc2cc(CCC(C)=O)ccc2c1	C-C chemokine receptor type 5 (Homo sapiens)	Not Active
CC(C)(CO)C(O)C(=O)NCCCO (stereo not drawn)	C-C chemokine receptor type 5 (Homo sapiens)	Not Active
COc1ccc(/C=C/C(=O)Nc2ccccc2C(=O)O)cc1OC	C-C chemokine receptor type 5 (Homo sapiens)	Not Active
O=C(O)c1cc(=O)c2c(OCC(O)COc3cccc4oc(C(=O)O)cc(=O)c34)cccc2o1	C-C chemokine receptor type 5 (Homo sapiens)	Not Active
C[C@H](C(=O)O)c1cccc(C(=O)c2ccccc2)c1	C-C chemokine receptor type 5 (Homo sapiens)	Not Active

get_value(item= NC[C@@H]1O[C@H](O[C@H]2[C@@H](O)[C@H](O[C@@H]3[C@@H](O)[C@H](N)C[C@H](N)[C@H]3O[C@H]3O[C@H](CN)[C@@H](O)[C@H](O)[C@H]3N)O[C@@H]2CO)[C@H](N)[C@@H](O)[C@@H]1O , readout=IC50) returns Not Active

Lookup result for CCC[C@@H]1C[C@@H](C(=O)N[C@@H]([C@H]2O[C@H](SC)[C@H](O)[C@@H](O)[C@H]2O)[C@H](C)Cl)N(C)C1 ; measured IC50: Not Active

Form: compound = CCOC(=O)[C@H](CCc1ccccc1)N[C@@H](C)C(=O)N1CCC[C@H]1C(=O)O ; IC50 = Not Active

For reference, reported IC50 for N=C(N)N/N=C/c1c(Cl)cccc1Cl stands at Not Active

get_value(item= CN1C[C@H](C(=O)N[C@]2(C)O[C@@]3(O)[C@@H]4CCCN4C(=O)[C@H](Cc4ccccc4)N3C2=O)C[C@@H]2c3cccc4[nH]cc(c34)C[C@H]21 [DIHYDROERGOTAMINE] , readout=IC50) returns Not Active

Briefly, IC50 measured for CC[C@H](C)C(=O)O[C@H]1C[C@H](O)C=C2C=C[C@H](C)[C@H](CC[C@@H](O)C[C@@H](O)CC(=O)O)[C@H]21 : Not Active

Looking up O=c1n(CCCN2CCN(c3cccc(Cl)c3)CC2)nc2ccccn12 , I see its IC50 listed as Not Active

====

biological target: UniProt P51681; format: cell membranes, Membrane; conditions: hek293
Measure: IC50

Mol smiles	Measure	Measured
CCCCC1C(=O)N(c2ccccc2)N(c2ccccc2)C1=O	IC50	Not Active
CCS(=O)(=O)CCn1c([N+](=O)[O-])cnc1C	IC50	Not Active
CN1C(=O)CN=C(c2ccccc2)c2cc(Cl)ccc21	IC50	Not Active
NC[C@H]1O[C@H](O[C@H]2[C@H](O)[C@@H](O[C@H]3O[C@H](CO)[C@@H](O)[C@H](N)[C@H]3O)[C@H](N)C[C@@H]2N)[C@H](N)C[C@@H]1O	IC50	Not Active
C[C@@H](O)[C@H]1C(=O)N2C(C(=O)O)=C(S[C@@H]3CN[C@H](C(=O)N(C)C)C3)[C@H](C)[C@H]12	IC50	Not Active

// recorded IC50 for CNC(=C[N+](=O)[O-])NCCSCc1csc(CN(C)C)n1 : Not Active
